molecular target: DOP receptor (Rattus norvegicus, UniProt P33533); construct: from tissue; host or cells: Sprague-Dawley rat brain membranes; test: Radioligand binding assay, DOP receptor, rat brain membranes ([3H][Ile5,6]deltorphin II); conditions: Ki ratio, rat brain membranes
Sequence (P33533 whole entry): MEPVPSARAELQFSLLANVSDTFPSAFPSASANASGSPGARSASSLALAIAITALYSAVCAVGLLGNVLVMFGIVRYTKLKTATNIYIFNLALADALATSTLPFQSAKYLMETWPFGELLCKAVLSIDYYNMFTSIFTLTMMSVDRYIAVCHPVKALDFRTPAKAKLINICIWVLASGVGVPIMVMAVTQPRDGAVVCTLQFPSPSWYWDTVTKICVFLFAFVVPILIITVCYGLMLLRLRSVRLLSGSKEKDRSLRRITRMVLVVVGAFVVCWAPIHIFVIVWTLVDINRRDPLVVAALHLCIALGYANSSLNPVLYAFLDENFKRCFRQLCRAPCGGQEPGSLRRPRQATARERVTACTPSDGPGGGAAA
Measured Attribute: Selectivity ratio DOP/MOP
Give your answer as a number; write no unit.

Solved entries:
QUERY: Selectivity ratio DOP/MOP lookup needed for COc1ccc2c(c1OC)C13C=C(C#N)C=CC1(OC)C(C2)N(C)CC3 (stereo not shown) [compound 5] , thanks.
RESULT: 56

QUERY: Selectivity ratio DOP/MOP lookup needed for COc1ccc2c(c1OC)C13C=C(C(N)=O)CCC1(OC)C(C2)N(C)CC3 (stereo not shown) [compound 4] , thanks.
RESULT: 18

QUERY: Selectivity ratio DOP/MOP lookup needed for COc1ccc2c3c1OC1C(C#N)=CCC4(OC)C(C2)N(C)CCC314 (stereo not shown) [compound 6] , thanks.
RESULT: 32

Others:
QUERY: Selectivity ratio DOP/MOP lookup needed for COc1ccc2c3c1O[C@H]1C(=O)CC[C@@]4(OC)[C@@H](C2)N(C)CC[C@]314 [14-OMC, 14-O-methyloxycodone, reference compound] , thanks.
RESULT: 3

Sourced from paper PMC4121618
